System under test: benzodiazepine receptors
Protocol text: Affinity for benzodiazepine receptors: inhibition of specific binding of 3H-labelled flunitrazepam in rat rear brain membranes
Condition parameters: inhibition of 50% of specific binding of 0.6×10^-9 mol 3H-flunitrazepam; membranes from rear portion of rat brain
Listed here are molecules together with their documented IC50.
Parameter measured: IC50 (nM)

[
  {
    "Structure notation": "Cc1cc2sc3nc(C(=O)C4CC4)cn3c2cc1C",
    "Measured value": 60
  },
  {
    "Structure notation": "O=C(c1cn2c(n1)sc1ccccc12)C1CC1",
    "Measured value": 20
  },
  {
    "Structure notation": "O=C(c1cn2c(n1)sc1cc(OCc3ccccc3)ccc12)C1CC1",
    "Measured value": 3.2
  },
  {
    "Structure notation": "CC(C)Oc1ccc2c(c1)sc1nc(C(=O)C3CC3)cn12",
    "Measured value": 6.3
  },
  {
    "Structure notation": "COc1ccc2c(c1)sc1nc(C(=O)C3CC3)cn12",
    "Measured value": 2.5
  },
  {
    "Structure notation": "O=C(c1cn2c3c(sc2n1)CCCC3)C1CC1",
    "Measured value": 79
  },
  {
    "Structure notation": "O=C(c1cn2c(n1)sc1cc3c(cc12)OCO3)C1CC1",
    "Measured value": 158
  }
]
